Exercise: state measured pEC50 for each of the compounds provided.
system: primary human fibroblasts derived from IPF patients (LL29 cells); test: Inhibition of the fibrotic process: αSMA staining in TGF-β1 treated LL29 fibroblasts; assay type: cell-based; conditions: Homo sapiens, Fibroblast, 96 h, TGF-β1 20 ng/mL, 4 days, % αSMA positive cells
pEC50 here: minus log base 10 of the concentration, concentration in moles per litre.

For the compound shown here, CN1CCN(c2cccc3[nH]c(-c4n[nH]c5ncc(-c6cncc(NC(=O)C7CCCC7)c6)cc45)cc23)CC1 [Compound 222] , give the reported pEC50.
6.10

Same again, this time with c1cncc(-c2cnc3[nH]nc(-c4cc5c(-c6cccnc6)cccc5[nH]4)c3c2)c1 [Compound 74]
6.39

Also Cc1ccncc1-c1cnc2[nH]nc(-c3cc4c(N5CCN(C)CC5)cccc4[nH]3)c2c1 [Compound 205] , if possible.
5.59

Same again, this time with Fc1ccc(-c2cccc3[nH]c(-c4n[nH]c5ncc(-c6cncc(CN7CCCC7)c6)cc45)cc23)cc1 [Compound 35]
5.63

Another compound to check: O=C(Nc1cncc(-c2cnc3[nH]nc(-c4cc5c(-c6ccc(F)cc6)cccc5[nH]4)c3c2)c1)c1ccccc1 [Compound 32]
5.31

----------
Assign EC50 to each entry below.
tested on: primary human fibroblasts derived from IPF patients (LL29 cells); test: Inhibition of the fibrotic process: αSMA staining in TGF-β1 treated LL29 fibroblasts; format: cell-based; settings: Homo sapiens, Fibroblast, 96 h, TGF-β1 20 ng/mL, 4 days, % αSMA positive cells
Hi! Could you send only the number? It should be in nM, unit omitted.

EC50 for `CC(C)CC(=O)Nc1cncc(-c2cnc3[nH]nc(-c4cc5c(N6CCN(C)CC6)cccc5[nH]4)c3c2)c1` ?
2310

// next record `CN(C)CCNc1cc(F)cc(-c2cccc3[nH]c(-c4n[nH]c5ncc(-c6cncc(N)c6)cc45)cc23)c1`
332

Could you do the same for `CC(C)(C)CC(=O)Nc1cncc(-c2cnc3[nH]nc(-c4cc5c(-c6ccccc6F)cccc5[nH]4)c3c2)c1` , please?
4970

Also check `CCNCc1cncc(-c2cnc3[nH]nc(-c4cc5c(-c6cc(F)cc(NCCN(C)C)c6)cccc5[nH]4)c3c2)c1`
1250

`CCCC(=O)Nc1cncc(-c2cnc3[nH]nc(-c4cc5c(-c6ccncc6)cccc5[nH]4)c3c2)c1` ?
2070

Check `CC(C)Nc1cncc(-c2cnc3[nH]nc(-c4cc5c(-c6ccccc6F)cccc5[nH]4)c3c2)c1` too.
411

Note, next up: `O=C(Nc1cncc(-c2cnc3[nH]nc(-c4cc5c(N6CCCCC6)cccc5[nH]4)c3c2)c1)C1CC1`
4330

Continue with `Cc1ccncc1-c1cnc2[nH]nc(-c3cc4c(-c5ccc(F)cc5)cccc4[nH]3)c2c1`
1610

Repeat for the following molecule: `CN(C)Cc1cncc(-c2cnc3[nH]nc(-c4cc5c(N6CCCCC6)cccc5[nH]4)c3c2)c1`
1230

Moving on to the next molecule: `CCCCC(=O)Nc1cncc(-c2cnc3[nH]nc(-c4cc5c(-c6ccccc6F)cccc5[nH]4)c3c2)c1`
1770

And what about the molecule `Nc1cncc(-c2cnc3[nH]nc(-c4cc5c(-c6ccccc6F)cccc5[nH]4)c3c2)c1` ?
173

Okay, and `CN1CCN(c2cccc3[nH]c(-c4n[nH]c5ncc(-c6ccncc6)cc45)cc23)CC1` ?
3810

Same again, this time with `FC1(F)CCN(Cc2cncc(-c3cnc4[nH]nc(-c5cc6c(-c7ccoc7)cccc6[nH]5)c4c3)c2)C1`
3210

Okay, and `Oc1cncc(-c2cnc3[nH]nc(-c4cc5c(-c6cccs6)cccc5[nH]4)c3c2)c1` ?
456

----------
tested on: SW480 colon cancer cells; test: Cell viability assay (CellTiter-Blue) in SW480 colon cancer cells; assay type: cell-based, human; conditions: four days, CellTiter-Blue
measure: EC50

Dear colleague, I am looking for the recorded EC50 of the following molecule: CN(C)CCNc1cc(F)cc(-c2cccc3[nH]c(-c4n[nH]c5ncc(-c6ccncc6)cc45)cc23)c1 [Compound 440]
4.14 µM

----------
test system: primary human fibroblasts derived from IPF patients (LL29 cells); test: Inhibition of the fibrotic process: αSMA staining in TGF-β1 treated LL29 fibroblasts; format: cell-based; conditions: Homo sapiens, Fibroblast, 96 h, TGF-β1 20 ng/mL, 4 days, % αSMA positive cells
Exercise: for every item that follows, state its recorded EC50.
Report the value in nM with no unit label.

Need EC50, item `CC(C)Nc1cncc(-c2cnc3[nH]nc(-c4cc5c(N6CCN(C)CC6)cccc5[nH]4)c3c2)c1`
1480

Follow-up item: `Fc1ccc(-c2cccc3[nH]c(-c4n[nH]c5ncc(-c6cncc(CN7CCCCC7)c6)cc45)cc23)cc1`
2440

Another molecule to look at: `Cc1ccncc1-c1cnc2[nH]nc(-c3cc4c(-c5ccncc5)cccc4[nH]3)c2c1`
2610

Next molecule up: `Fc1ccc(-c2cccc3[nH]c(-c4n[nH]c5ncc(-c6cncnc6)cc45)cc23)cc1`
4960

Same thing, different molecule: `c1ccc(CNCc2cncc(-c3cnc4[nH]nc(-c5cc6ccccc6[nH]5)c4c3)c2)cc1`
2950

Then what about the molecule `Nc1cncc(-c2cnc3[nH]nc(-c4cc5c(N6CCCCC6)cccc5[nH]4)c3c2)c1` ?
620

Also `Fc1ccccc1-c1cccc2[nH]c(-c3n[nH]c4ncc(C5CCNCC5)cc34)cc12` ?
5080

----------
system: primary human fibroblasts derived from IPF patients (LL29 cells); experiment: Inhibition of the fibrotic process: αSMA staining in TGF-β1 treated LL29 fibroblasts; type: cell-based; conditions: Homo sapiens, Fibroblast, 96 h, TGF-β1 20 ng/mL, 4 days, % αSMA positive cells
I'd appreciate it if you could supply pEC50 values for the items below.
Interpret pEC50 as the negative base-10 log of the concentration measured in mol/L.

API: value(readout=pEC50, system=primary human fibroblasts derived from IPF patients (LL29 cells)) for record `c1cncc(-c2cnc3[nH]nc(-c4cc5ccccc5[nH]4)c3c2)c1`
5.06

Same thing, different compound: `CS(=O)(=O)NCc1cc(F)cc(-c2cccc3[nH]c(-c4n[nH]c5ncc(-c6cncc(NC(=O)c7ccccc7)c6)cc45)cc23)c1`
5.87

Same again, this time with `CS(=O)(=O)NCc1cc(F)cc(-c2cccc3[nH]c(-c4n[nH]c5ncc(-c6cncc(NC(=O)C7CC7)c6)cc45)cc23)c1`
5.88

Okay, and `O=C(Nc1cncc(-c2cnc3[nH]nc(-c4cc5c(N6CCCCC6)cccc5[nH]4)c3c2)c1)c1ccccc1` ?
5.29

Entry to check: `c1cncc(-c2cccc3[nH]c(-c4n[nH]c5ncc(-c6cncc(CN7CCCCC7)c6)cc45)cc23)c1`
5.22

And for `CC(C)C(=O)Nc1cncc(-c2cnc3[nH]nc(-c4cc5c(N6CCN(C)CC6)cccc5[nH]4)c3c2)c1` ?
5.25

----------
test system: primary human fibroblasts derived from IPF patients (LL29 cells); test: Inhibition of the fibrotic process: αSMA staining in TGF-β1 treated LL29 fibroblasts; type: cell-based; details: Homo sapiens, Fibroblast, 96 h, TGF-β1 20 ng/mL, 4 days, % αSMA positive cells
measure: pEC50
Keep in mind that pEC50 stands for -log10 of concentration in molar terms.

Fill in the blank: the reported pEC50 of `CCCC(=O)Nc1cncc(-c2cnc3[nH]nc(-c4cc5ccccc5[nH]4)c3c2)c1` is ____.
6.68

// same read-out, input: `CC(C)(C)C(=O)Nc1cncc(-c2cnc3[nH]nc(-c4cc5ccccc5[nH]4)c3c2)c1`
6.55

Same again, this time with `CC(C)CC(=O)Nc1cncc(-c2cnc3[nH]nc(-c4cc5c(-c6cc(F)cc(NCCN(C)C)c6)cccc5[nH]4)c3c2)c1`
6.46

Entry to check: `CC(C)(C)C(=O)Nc1cncc(-c2cnc3[nH]nc(-c4cc5c(-c6ccc(F)cc6)cccc5[nH]4)c3c2)c1`
5.38

----------
tested on: IL-6; assay: IL-6 inhibition in LPS-stimulated THP-1 monocytes (HTRF); type: cell-based, human; settings: Homo sapiens; THP-1 cells, 500 ng/mL LPS, 22 h, HTRF IL-6 readout; 10-point dose-response from 10 μM
Consider the following compounds; for each one, report its pEC50.
Units for pEC50: none; it is -log10 of a concentration expressed in mol/L.

Provide value of pEC50 for this record tested with IL-6: `CC(C)(C)CC(=O)Nc1cncc(-c2cnc3[nH]nc(-c4cc5c(-c6ccccc6F)cccc5[nH]4)c3c2)c1`
5.33

Could you do the same for `CN(C)c1cncc(-c2cnc3[nH]nc(-c4cc5c(-c6cccc(F)c6)cccc5[nH]4)c3c2)c1` , please?
6.05

Moving on to the next compound: `Cn1cc(-c2cnc3[nH]nc(-c4cc5c(-c6cccs6)cccc5[nH]4)c3c2)cn1`
5.86

Same question for `CN(C)c1cncc(-c2cnc3[nH]nc(-c4cc5ncccc5[nH]4)c3c2)c1` please.
5.13

Just for reference, patent US20180214428A1 is where these values come from.
